- target-or-test-system: Histone-lysine N-methyltransferase, H3 lysine-36 specific (Homo sapiens)
- Sequence (Q96L73 whole entry): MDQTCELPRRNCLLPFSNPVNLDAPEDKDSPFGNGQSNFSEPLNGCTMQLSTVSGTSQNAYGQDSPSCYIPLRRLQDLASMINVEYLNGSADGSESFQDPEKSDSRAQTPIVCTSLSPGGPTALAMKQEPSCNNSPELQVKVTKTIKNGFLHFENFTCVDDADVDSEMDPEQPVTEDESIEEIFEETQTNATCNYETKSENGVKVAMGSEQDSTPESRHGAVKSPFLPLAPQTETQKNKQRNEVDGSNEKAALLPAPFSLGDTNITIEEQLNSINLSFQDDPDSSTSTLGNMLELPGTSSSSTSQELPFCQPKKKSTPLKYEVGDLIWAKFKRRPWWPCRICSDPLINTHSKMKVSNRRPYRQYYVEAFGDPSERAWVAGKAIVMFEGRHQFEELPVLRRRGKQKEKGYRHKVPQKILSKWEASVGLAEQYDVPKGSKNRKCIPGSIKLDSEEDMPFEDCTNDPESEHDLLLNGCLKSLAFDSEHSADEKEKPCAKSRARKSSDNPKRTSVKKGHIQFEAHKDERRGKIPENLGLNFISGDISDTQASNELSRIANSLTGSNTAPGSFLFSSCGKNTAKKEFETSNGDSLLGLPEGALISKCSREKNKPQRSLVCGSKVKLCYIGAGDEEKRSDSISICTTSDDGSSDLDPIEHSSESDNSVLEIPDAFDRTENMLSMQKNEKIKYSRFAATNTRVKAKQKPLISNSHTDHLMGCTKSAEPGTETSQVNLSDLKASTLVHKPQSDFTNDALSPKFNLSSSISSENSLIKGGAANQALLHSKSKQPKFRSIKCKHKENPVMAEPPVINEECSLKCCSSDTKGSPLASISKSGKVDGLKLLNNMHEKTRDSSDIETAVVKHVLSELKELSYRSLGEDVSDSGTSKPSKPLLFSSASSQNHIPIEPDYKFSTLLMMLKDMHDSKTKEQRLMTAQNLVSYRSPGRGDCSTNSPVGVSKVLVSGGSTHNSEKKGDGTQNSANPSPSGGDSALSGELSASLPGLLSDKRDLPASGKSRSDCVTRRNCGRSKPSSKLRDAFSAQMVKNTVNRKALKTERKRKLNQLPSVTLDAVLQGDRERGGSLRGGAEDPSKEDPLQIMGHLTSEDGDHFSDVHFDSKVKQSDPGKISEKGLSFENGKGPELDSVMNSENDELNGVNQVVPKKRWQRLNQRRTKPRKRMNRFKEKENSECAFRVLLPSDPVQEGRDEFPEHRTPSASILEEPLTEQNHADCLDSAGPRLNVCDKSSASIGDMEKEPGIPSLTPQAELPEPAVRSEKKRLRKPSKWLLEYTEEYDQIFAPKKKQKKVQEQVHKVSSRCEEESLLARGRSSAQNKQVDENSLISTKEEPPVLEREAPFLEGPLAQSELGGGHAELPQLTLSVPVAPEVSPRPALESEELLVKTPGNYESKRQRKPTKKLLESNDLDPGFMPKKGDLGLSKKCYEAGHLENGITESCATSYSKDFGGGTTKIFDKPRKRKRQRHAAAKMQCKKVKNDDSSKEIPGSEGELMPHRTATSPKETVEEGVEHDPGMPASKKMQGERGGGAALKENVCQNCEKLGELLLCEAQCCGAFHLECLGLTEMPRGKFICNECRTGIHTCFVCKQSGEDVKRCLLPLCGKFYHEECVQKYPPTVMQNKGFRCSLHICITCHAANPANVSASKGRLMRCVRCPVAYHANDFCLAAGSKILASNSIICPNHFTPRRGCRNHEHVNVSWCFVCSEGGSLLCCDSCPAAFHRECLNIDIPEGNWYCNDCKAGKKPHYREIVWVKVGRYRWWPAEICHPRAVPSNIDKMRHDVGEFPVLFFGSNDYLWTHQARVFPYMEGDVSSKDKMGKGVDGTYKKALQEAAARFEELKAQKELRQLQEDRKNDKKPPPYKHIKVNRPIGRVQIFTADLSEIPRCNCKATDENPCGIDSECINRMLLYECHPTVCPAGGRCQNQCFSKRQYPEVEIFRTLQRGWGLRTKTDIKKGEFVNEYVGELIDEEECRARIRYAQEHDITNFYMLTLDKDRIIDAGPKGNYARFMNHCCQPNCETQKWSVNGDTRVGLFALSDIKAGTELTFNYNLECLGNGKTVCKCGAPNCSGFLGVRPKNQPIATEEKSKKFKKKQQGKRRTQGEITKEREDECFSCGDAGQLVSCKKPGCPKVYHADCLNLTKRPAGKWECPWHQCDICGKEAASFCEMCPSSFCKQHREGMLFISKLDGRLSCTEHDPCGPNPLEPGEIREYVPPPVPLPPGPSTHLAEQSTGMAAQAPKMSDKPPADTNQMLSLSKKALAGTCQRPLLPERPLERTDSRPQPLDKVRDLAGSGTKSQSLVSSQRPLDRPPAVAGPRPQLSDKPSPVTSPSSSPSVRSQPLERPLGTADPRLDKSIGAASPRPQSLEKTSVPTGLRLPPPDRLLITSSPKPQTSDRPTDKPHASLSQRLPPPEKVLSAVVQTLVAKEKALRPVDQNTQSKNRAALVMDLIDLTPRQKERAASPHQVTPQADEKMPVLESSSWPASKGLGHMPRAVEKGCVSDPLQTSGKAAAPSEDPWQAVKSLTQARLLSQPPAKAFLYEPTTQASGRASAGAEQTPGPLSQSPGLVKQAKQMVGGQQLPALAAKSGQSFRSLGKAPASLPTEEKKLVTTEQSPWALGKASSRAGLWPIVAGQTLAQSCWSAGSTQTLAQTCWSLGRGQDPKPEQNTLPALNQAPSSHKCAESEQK
endpoint-name: pIC50
Scale note: pIC50 = -log10(concentration in M).

// sample CC#CC(=O)NC12CC(NC3=C(Cl)C(=O)c4ncccc4C3=O)(C1)C2 , its pIC50 was 6.16

###

- target-or-test-system: UniProt O96028
- assay-notes: Inhibition of recombinant human NSD2 (941 to 1240 residues) using SAM as substrate incubated for 3 hrs by AlphaLISA assay
pIC50 values for the compounds below.
Scale note: pIC50 = -log10(concentration in M).

CC(C)(O)[C@H](F)CNC1=C(Cl)C(=O)c2ncccc2C1=O : 5.88
O=C1C(Cl)=C(NCCN2CCOCC2)C(=O)c2ncccc21 : 6.64
CC#CC(=O)NCCC1CCN(C2=C(Cl)C(=O)c3cccnc3C2=O)CC1 : 5.77
O=C1C(NCCN2CCOCC2)=C(Cl)C(=O)c2ncccc21 : 6.31
CC(C)(O)[C@H](F)CNC1=C(Cl)C(=O)c2ccc(N3CCCC3)nc2C1=O : 6.44

// sample CC#CC(=O)NCCC1CCN(C2=C(Cl)C(=O)c3ncccc3C2=O)CC1 , its pIC50 was 6.31

// sample CC(F)(F)C(=O)NC12CC(NC3=C(Cl)C(=O)c4ncccc4C3=O)(C1)C2 , its pIC50 was 6.48

// sample O=C1C(Cl)=C(NCCC2(O)CCN(C(=O)C3CC3(F)F)CC2)C(=O)c2ncccc21 (stereo not given) , its pIC50 was 6.70

// sample CC(F)(F)C(=O)NCCC1CN(C2=C(Cl)C(=O)c3ncccc3C2=O)C1 , its pIC50 was 6.42

// sample O=C1C(NC2CCc3ccccc32)=C(Cl)C(=O)c2ncccc21 (stereo not given) , its pIC50 was 6.35

// sample CC(F)(F)C(=O)NC1CN(C2=C(Cl)C(=O)c3cccnc3C2=O)C1 , its pIC50 was 6.33

// sample CC(F)(F)C(=O)NC1CN(C2=C(Cl)C(=O)c3ncccc3C2=O)C1 , its pIC50 was 6.44

###

- target-or-test-system: Histone-lysine N-methyltransferase NSD2 (Homo sapiens, UniProt O96028)
- Sequence (O96028 whole entry): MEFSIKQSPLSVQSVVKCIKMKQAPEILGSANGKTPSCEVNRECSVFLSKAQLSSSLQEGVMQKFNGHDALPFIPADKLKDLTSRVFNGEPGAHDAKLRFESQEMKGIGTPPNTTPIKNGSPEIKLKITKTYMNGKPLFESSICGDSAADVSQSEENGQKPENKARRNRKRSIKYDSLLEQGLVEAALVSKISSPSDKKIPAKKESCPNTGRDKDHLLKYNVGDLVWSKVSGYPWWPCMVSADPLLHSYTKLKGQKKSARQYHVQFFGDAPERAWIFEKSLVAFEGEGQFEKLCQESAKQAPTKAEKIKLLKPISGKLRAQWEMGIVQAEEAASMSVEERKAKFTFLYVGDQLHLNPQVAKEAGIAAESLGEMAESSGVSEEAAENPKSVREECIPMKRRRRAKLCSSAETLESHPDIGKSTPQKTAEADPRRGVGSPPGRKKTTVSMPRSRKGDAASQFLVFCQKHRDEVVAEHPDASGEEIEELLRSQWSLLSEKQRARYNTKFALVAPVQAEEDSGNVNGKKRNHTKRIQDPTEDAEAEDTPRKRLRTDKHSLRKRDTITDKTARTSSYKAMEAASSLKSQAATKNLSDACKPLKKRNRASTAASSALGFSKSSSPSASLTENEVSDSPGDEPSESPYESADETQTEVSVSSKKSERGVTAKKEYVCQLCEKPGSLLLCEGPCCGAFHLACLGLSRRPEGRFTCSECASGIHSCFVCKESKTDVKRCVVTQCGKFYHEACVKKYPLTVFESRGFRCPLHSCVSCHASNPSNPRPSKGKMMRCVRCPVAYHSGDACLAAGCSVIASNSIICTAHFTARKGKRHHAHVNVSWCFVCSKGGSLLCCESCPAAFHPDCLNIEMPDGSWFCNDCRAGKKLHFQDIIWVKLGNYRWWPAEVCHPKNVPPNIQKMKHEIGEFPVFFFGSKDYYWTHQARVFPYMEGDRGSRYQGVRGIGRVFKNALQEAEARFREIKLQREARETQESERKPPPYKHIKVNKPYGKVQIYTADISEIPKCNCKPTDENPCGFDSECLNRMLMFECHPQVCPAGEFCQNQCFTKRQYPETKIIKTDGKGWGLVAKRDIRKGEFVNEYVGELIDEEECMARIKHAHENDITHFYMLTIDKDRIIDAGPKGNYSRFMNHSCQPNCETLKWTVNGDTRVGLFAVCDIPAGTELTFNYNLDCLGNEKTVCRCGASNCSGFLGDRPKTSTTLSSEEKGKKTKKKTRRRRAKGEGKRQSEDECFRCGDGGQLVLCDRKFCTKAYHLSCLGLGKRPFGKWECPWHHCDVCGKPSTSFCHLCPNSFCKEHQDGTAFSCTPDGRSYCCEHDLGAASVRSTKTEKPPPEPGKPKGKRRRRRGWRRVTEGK
- assay-notes: Competitive inhibition of NSD2 (unknown origin) using SAM as substrate
endpoint-name: IC50

// sample NNc1nc2ccccc2nc1S , its IC50 was < 3 µM

###

AUC(0-t) at 24 h values for the molecules below.
- assay-notes: AUClast in ICR mouse at 3 mg/kg, po measured for 24 hrs by LC-MS/MS analysis
- Assay type: ADME, organism-based
- Design: dose 3 mg/kg, time 24 hrs, route po
- measurement-parameters: in vivo
Give a bare numeral; the unit ng·h/mL is implied.

CC#CC(=O)NC12CC(NC3=C(Cl)C(=O)c4ncccc4C3=O)(C1)C2 : 42700
CC(F)(F)C(=O)NC12CC(NC3=C(Cl)C(=O)c4ncccc4C3=O)(C1)C2 : 758

// sample O=C1C(Cl)=C(NCCN2CCOCC2)C(=O)c2ncccc21 , its AUC(0-t) at 24 h was 14.5

###

- target-or-test-system: Histone-lysine N-methyltransferase NSD2 (Homo sapiens)
- Sequence (O96028 whole entry): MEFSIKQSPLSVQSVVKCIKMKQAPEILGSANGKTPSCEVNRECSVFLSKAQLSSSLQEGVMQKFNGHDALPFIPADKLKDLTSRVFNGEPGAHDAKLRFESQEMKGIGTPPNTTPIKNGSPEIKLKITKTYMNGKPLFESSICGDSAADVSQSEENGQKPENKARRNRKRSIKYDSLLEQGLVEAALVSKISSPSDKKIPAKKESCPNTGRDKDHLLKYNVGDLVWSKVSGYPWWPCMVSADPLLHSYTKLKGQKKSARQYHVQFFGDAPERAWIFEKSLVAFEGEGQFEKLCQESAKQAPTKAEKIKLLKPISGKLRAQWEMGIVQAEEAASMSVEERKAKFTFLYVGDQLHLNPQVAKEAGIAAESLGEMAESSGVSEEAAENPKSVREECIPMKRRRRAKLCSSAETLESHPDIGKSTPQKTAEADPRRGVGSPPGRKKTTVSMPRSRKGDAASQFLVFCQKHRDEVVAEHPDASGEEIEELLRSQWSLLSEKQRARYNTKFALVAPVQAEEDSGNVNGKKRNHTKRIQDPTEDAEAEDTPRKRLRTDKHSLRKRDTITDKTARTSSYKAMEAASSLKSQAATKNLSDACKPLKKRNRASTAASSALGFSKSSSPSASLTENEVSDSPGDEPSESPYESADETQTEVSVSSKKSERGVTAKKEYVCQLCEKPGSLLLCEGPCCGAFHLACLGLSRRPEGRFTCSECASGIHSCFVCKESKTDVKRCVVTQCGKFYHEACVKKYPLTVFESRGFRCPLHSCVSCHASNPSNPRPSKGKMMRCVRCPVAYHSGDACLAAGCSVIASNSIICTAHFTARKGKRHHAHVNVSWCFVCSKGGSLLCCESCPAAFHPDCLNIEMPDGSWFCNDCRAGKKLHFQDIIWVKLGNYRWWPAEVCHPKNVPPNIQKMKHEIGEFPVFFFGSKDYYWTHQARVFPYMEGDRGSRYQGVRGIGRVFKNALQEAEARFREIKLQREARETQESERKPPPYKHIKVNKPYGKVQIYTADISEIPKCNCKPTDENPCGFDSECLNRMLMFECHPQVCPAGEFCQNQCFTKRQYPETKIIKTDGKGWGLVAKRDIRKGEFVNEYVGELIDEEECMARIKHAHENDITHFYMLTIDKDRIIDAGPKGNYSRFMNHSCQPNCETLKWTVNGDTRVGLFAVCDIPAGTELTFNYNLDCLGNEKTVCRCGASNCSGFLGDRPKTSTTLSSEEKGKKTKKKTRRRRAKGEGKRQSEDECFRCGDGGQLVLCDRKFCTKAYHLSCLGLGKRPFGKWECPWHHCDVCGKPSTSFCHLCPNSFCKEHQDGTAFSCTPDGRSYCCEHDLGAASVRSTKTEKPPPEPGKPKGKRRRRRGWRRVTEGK
- assay-notes: Inhibition of recombinant human NSD2 (941 to 1240 residues) using SAM as substrate incubated for 3 hrs by AlphaLISA assay
endpoint-name: pIC50
Scale note: pIC50 = -log10(concentration in M).

CC(F)(F)C(=O)N1CCC2(CC1)CN(C1=C(Cl)C(=O)c3ncccc3C1=O)C2 : 5.52
CC(F)(F)C(=O)N1CCC2(CC1)CN(C1=C(Cl)C(=O)c3cccnc3C1=O)C2 : 6.48
CC(C)(O)[C@H](F)CNC1=C(Cl)C(=O)c2ccc(N3CCC(F)(F)C3)nc2C1=O : 6.03

// sample CC#CC(=O)NC1CN(C2=C(Cl)C(=O)c3cccnc3C2=O)C1 , its pIC50 was 6.51

// sample O=C1C(Cl)=C(NC23CC(NC(=O)C4CC4(F)F)(C2)C3)C(=O)c2ncccc21 (stereo not given) , its pIC50 was 6.39
